From: patent US20240190936A1

- Target Or Test System: T1, human GLP-1 receptor (human, UniProt P43220 24-463)
- T1 construct: whole, on cells; cAMP assays used the whole cells; also called hGLP-1R; GLP-IR
- Run Description: radioligand competition SPA, membranes of HEK293 cells overexpressing human GLP-1R
pKi: −log10 of the molar value.
# pKi per record follows

[
  {
    "Binder": "YXHGTXTSDYSILLDKKAQXAFIEYLLEGGPSSGAPPPS (Aib at 2; αMeF(2F) at 6; K17 conjugated at the epsilon-amino group with (2-[2-(2-amino-ethoxy)-ethoxy]-acetyl)2-(γGlu)-CO-(CH2)18-CO2H; Aib at 20; C-terminal amide, Synthetic acylated peptide) [Example 3]",
    "pKi": 8.78
  },
  {
    "Binder": "YXQGTXTSDYSILLDKKAQXAFIEYLLEGGPSSGAPPPS (Aib at 2; αMeF at 6; K17 conjugated at the epsilon-amino group with (2-[2-(2-amino-ethoxy)-ethoxy]-acetyl)2-(γGlu)-CO-(CH2)18-CO2H; Aib at 20; C-terminal amide, Synthetic acylated peptide) [Example 1]",
    "pKi": 8.60
  },
  {
    "Binder": "YXQGTXTSDYSIXLDKKAQXAFIEYLLEGGPSSGAPPPS (Aib at 2; αMeF at 6; αMeL at 13; K17 conjugated at the epsilon-amino group with (2-[2-(2-amino-ethoxy)-ethoxy]-acetyl)2-(γGlu)-CO-(CH2)18-CO2H; Aib at 20; C-terminal amide, Synthetic acylated peptide) [Example 2]",
    "pKi": 8.62
  },
  {
    "Binder": "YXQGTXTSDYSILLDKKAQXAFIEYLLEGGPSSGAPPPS (Aib at 2; αMeF(2F) at 6; K17 conjugated at the epsilon-amino group with (2-[2-(2-amino-ethoxy)-ethoxy]-acetyl)-(γGlu)-CO-(CH2)18-CO2H; Aib at 20; C-terminal amide, Synthetic acylated peptide) [Example 4]",
    "pKi": 8.92
  }
]
